Experiment: in vivo
Experimental parameters: male, beagle, dog, in vivo, 6 mg/kg, Blood efinaconazole concentration, Time 4 hr
Result type: concentration at 4 hr (ng/mL)
The reply should be a number in ng/mL, with the unit left off.

Prompt line: # concentration at 4 hr lookup, item C=C1CCN([C@H](C)[C@](O)(Cn2cncn2)c2ccc(F)cc2F)CC1 [Efinaconazole]
Response line: 64.9

----------
Experiment: in vivo
Experimental parameters: male, dog, in vivo, 6 mg/kg, beagle dog, fasting, single 6 mg/kg P.O; individual animals; read-out: Blood voriconazole concentration, Time 4 hr
Result type: concentration at 4 h (µg/mL)
The reply should be a number in µg/mL, with the unit left off.

Prompt line: # concentration at 4 h lookup, item C[C@@H](c1ncncc1F)[C@](O)(Cn1cncn1)c1ccc(F)cc1F
Response line: 2.94

----------
Experiment: in vivo
Experimental parameters: male, beagle, dog, in vivo, po, 6 mg/kg, AUC∞
Experimental: 24 male beagle dogs were divided into 4 groups, 6 animals per group. Voriconazole as a control drug was once administered to the animals via an oral route under fasting conditions. […] Thereafter, the pharmacokinetic (PK) profiles of the drugs were determined to calculate PK parameters of the drugs and evaluate the pharmacokinetics of the drugs. […] For intravenous administration, the doses of efinaconazole (intravenous administration group G1) were calculated based on the body weights of the animals. […]
Result type: AUC(0-inf)
Quick note: number first, unit second.

Prompt line: # AUC(0-inf) lookup, item C[C@@H](c1ncncc1F)[C@](O)(Cn1cncn1)c1ccc(F)cc1F
Response line: 109 µg·h/mL

----------
Experiment: in vivo
Experimental parameters: male, beagle, dog, in vivo, 0.5 mg/kg, Blood efinaconazole concentration, Time 12 hr
Result type: concentration at 12 hr (ng/mL)
The reply should be a number in ng/mL, with the unit left off.

Prompt line: # concentration at 12 hr lookup, item C=C1CCN([C@H](C)[C@](O)(Cn2cncn2)c2ccc(F)cc2F)CC1 [Efinaconazole]
Response line: 3.52

----------
Experiment: in vivo
Experimental parameters: male, beagle, dog, in vivo, 0.5 mg/kg, Blood efinaconazole concentration, Time 0.053 hr
Result type: concentration at 0.053 h (ng/mL)
The reply should be a number in ng/mL, with the unit left off.

Prompt line: # concentration at 0.053 h lookup, item C=C1CCN([C@H](C)[C@](O)(Cn2cncn2)c2ccc(F)cc2F)CC1 [Efinaconazole]
Response line: 262

----------
Experiment: in vivo
Experimental parameters: male, dog, in vivo, 6 mg/kg, beagle dog, fasting, single 6 mg/kg P.O; individual animals; read-out: Blood voriconazole concentration, Time 6 hr
Result type: concentration at 6 h (ng/mL)
The reply should be a number in ng/mL, with the unit left off.

Prompt line: # concentration at 6 h lookup, item C[C@@H](c1ncncc1F)[C@](O)(Cn1cncn1)c1ccc(F)cc1F
Response line: 2660

----------
Experiment: in vivo
Experimental parameters: male, beagle, dog, in vivo, 6 mg/kg, Blood efinaconazole concentration, Time 6 hr
Result type: concentration at 6 hr (ng/mL)
The reply should be a number in ng/mL, with the unit left off.

Prompt line: # concentration at 6 hr lookup, item C=C1CCN([C@H](C)[C@](O)(Cn2cncn2)c2ccc(F)cc2F)CC1
Response line: 27.5

----------
Experiment: in vivo
Experimental parameters: male, beagle, dog, in vivo, 0.5 mg/kg, Blood efinaconazole concentration, Time 0.25 hr
Result type: concentration at 0.25 h (ng/mL)
The reply should be a number in ng/mL, with the unit left off.

Prompt line: # concentration at 0.25 h lookup, item C=C1CCN([C@H](C)[C@](O)(Cn2cncn2)c2ccc(F)cc2F)CC1
Response line: 168
